# Experimental System: Aldehyde dehydrogenase 1A1 (Homo sapiens)
# Assay Remarks: qHTS Assay for Inhibitors of Aldehyde Dehydrogenase 1 (ALDH1A1)
# Measurement Conditions: Purified ALDH1A1, NADH fluorescence, propionaldehyde substrate; series mostly up to 75.3 µM
The whole screen tested about 220,000 compounds, of which about 16,000 (7.3%) were called active. Not shown: some 25% with an inconclusive outcome. The call rests on the fitted dose curve; in most records, active means well fitted inhibition curve with a large enough effect (not every such curve was filed as active); inconclusive means small, poorly fitted or top-dose-only effect, or another doubt; inactive means no such curve, though single readings can be large or run the other way. The full list was thinned out, with actives kept by preference.
Outcome codes: yes (1) = active, no (0) = inactive

- Compound: "C/C(=N/NC(=O)CCc1ccccc1)c1ccco1"
  Class Assignment: "no (0)"
- Compound: "OCC1(Cc2ccccc2)CCN(Cc2cc3ccccc3o2)CC1"
  Class Assignment: "no (0)"
- Compound: "CCC(C)Sc1nc2c(c(=O)[nH]c(=O)n2C)n1CC(O)COc1cccc2ccccc12 (stereo not given)"
  Class Assignment: "yes (1)"
- Compound: "O=C(O)c1cc(Cl)c(Cl)cc1C(=O)Nc1cccc2ncccc12"
  Class Assignment: "no (0)"
- Compound: "CCOC(=O)N1CC=C2C(C#N)=C(N)C(C#N)(C#N)[C@H](c3cccs3)[C@H]2C1"
  Class Assignment: "yes (1)"
- Compound: "CC(Sc1nnnn1C1CCCCC1)C(=O)O (stereo not given)"
  Class Assignment: "no (0)"
- Compound: "Cc1ccc(S(=O)(=O)N2CCCC2C(=O)NCc2ccco2)cc1 (stereo not given)"
  Class Assignment: "yes (1)"
- Compound: "COn1c(-c2ccc(Cl)cc2Cl)nc2ncccc21"
  Class Assignment: "no (0)"
- Compound: "Cc1cccc(C(=O)Nc2ccccc2N2CCN(c3ccc(F)cc3)CC2)c1"
  Class Assignment: "no (0)"
- Compound: "O=C(Nc1cccc2ncccc12)C(Cl)(Cl)Cl"
  Class Assignment: "no (0)"
- Compound: "COc1ccc(C)cc1-n1nnnc1SCC(=O)c1cc(C)n(Cc2ccco2)c1C"
  Class Assignment: "yes (1)"
- Compound: "Cc1ccc(NC2=C(Cl)C(=O)OC2OC(=O)c2ccccc2C)cc1 (stereo not given)"
  Class Assignment: "no (0)"
- Compound: "Brc1cc(/C=N/n2cnnc2)oc1Br"
  Class Assignment: "no (0)"
- Compound: "CCN(CCn1cccn1)C(=O)CC1C(=O)NCCN1Cc1cccc(OC)c1OC (stereo not given)"
  Class Assignment: "no (0)"
- Compound: "COc1ccccc1CC(=O)Nc1ccc(F)cc1F"
  Class Assignment: "no (0)"
- Compound: "CCCOc1ccccc1C1CC(=O)Nc2cc3c(cc21)OCO3 (stereo not given)"
  Class Assignment: "no (0)"
- Compound: "Cc1ccc(S(=O)(=O)Nc2nc(N)n(-c3ccccc3)n2)cc1"
  Class Assignment: "no (0)"
- Compound: "CC(C)C(C)(C#N)NC(=O)CSc1nncn1-c1ccccc1 (stereo not given)"
  Class Assignment: "no (0)"
- Compound: "C=CCNC(=O)CSc1nc2sc(C)c(C)c2c(=O)[nH]1"
  Class Assignment: "no (0)"
- Compound: "Cc1ccnc(N2C(=O)c3ccccc3C2Nc2ccc3c(c2)OCCO3)c1 (stereo not given)"
  Class Assignment: "no (0)"
- Compound: "Cc1cc(C(=O)COC(=O)CNC(=O)c2ccc(F)cc2)c(C)n1Cc1ccco1"
  Class Assignment: "no (0)"
- Compound: "CC1CCCN(CC(O)COc2ccc3c(c2)OCO3)C1 (stereo not given)"
  Class Assignment: "no (0)"
- Compound: "O=[N+]([O-])c1ccc2c(c1)C(N1CCOCC1)/C(=C/C1(O)CCCCC1)O2 (stereo not given)"
  Class Assignment: "yes (1)"
- Compound: "COc1ccccc1/C=C/C=N/n1c(-c2ccc(Cl)cc2Cl)n[nH]c1=S"
  Class Assignment: "yes (1)"
- Compound: "Clc1ccc(-c2ncc3ccccn23)c(Cl)c1"
  Class Assignment: "no (0)"
- Compound: "O=C(NC1CCCCC1)c1cc([N+](=O)[O-])ccc1N1CCOCC1"
  Class Assignment: "no (0)"
- Compound: "CCOCCCNCc1ccc(OCc2ccc(F)cc2)c(OC)c1"
  Class Assignment: "no (0)"
- Compound: "Cc1ccc(CC2CC(=O)N(c3ccc4c(c3)OCCO4)C2=O)cc1 (stereo not given)"
  Class Assignment: "no (0)"
- Compound: "CSCCNCc1cn(-c2ccc(F)cc2F)nc1-c1ccccc1C"
  Class Assignment: "yes (1)"
- Compound: "O=[N+]([O-])c1cc(Br)c(O)c(/C=N/Nc2nc3ccccc3s2)c1"
  Class Assignment: "no (0)"
- Compound: "O=C1c2ccccc2C(Nc2ccc3c(c2)OCCO3)N1Cc1ccco1 (stereo not given)"
  Class Assignment: "yes (1)"
- Compound: "Cc1cc(C(=O)NNC(=O)CCC2CCCCC2)c(C)o1"
  Class Assignment: "no (0)"
- Compound: "Cc1c(C(=O)Nc2cccc(Cl)c2)cn2c(nc3ccccc32)c1C#N"
  Class Assignment: "no (0)"
- Compound: "COc1ccc(OC)c(-n2nnnc2SCC(=O)Nc2cc(C)ccc2OC)c1"
  Class Assignment: "no (0)"
- Compound: "Cc1c(C(N)=O)sc2ncn(CCOc3ccccc3)c(=O)c12"
  Class Assignment: "no (0)"
- Compound: "CCCCNc1nc2c(c(=O)[nH]c(=O)n2C)n1CCOc1ccccc1"
  Class Assignment: "no (0)"
- Compound: "O=C(NCc1cccs1)c1cc(-c2ccccn2)nc2ccc(Br)cc12"
  Class Assignment: "no (0)"
- Compound: "CC(C)[C@@H]1NC(=O)c2cc([N+](=O)[O-])cc(I)c2NCCC[C@@H](C(=O)NC(CC(=O)O)C(N)=O)NC(=O)[C@H](CO)NC1=O (stereo not given in full)"
  Class Assignment: "no (0)"
- Compound: "CN(/C(=N/S(=O)(=O)c1cccs1)c1ccccc1)c1ccc(O)cc1"
  Class Assignment: "no (0)"
- Compound: "O=C(NCc1ccco1)C1CCCN(S(=O)(=O)c2ccccc2)C1 (stereo not given)"
  Class Assignment: "no (0)"
- Compound: "O=C(Nc1cccc(NC(=O)N2CCN(c3ccccc3)CC2)c1)N1CCN(c2ccccc2)CC1"
  Class Assignment: "no (0)"
- Compound: "O=C(NC1CCCCC1)C1c2ccccc2C(=O)N1Cc1ccco1 (stereo not given)"
  Class Assignment: "no (0)"
- Compound: "O=C(CC1SCCNC1=O)Nc1ccc(Cl)c(Cl)c1 (stereo not given)"
  Class Assignment: "no (0)"
- Compound: "O=C(C1CCCN1S(=O)(=O)c1ccc(Br)cc1)N1CCOCC1 (stereo not given)"
  Class Assignment: "no (0)"
- Compound: "COC(=O)CNC(=O)c1ccc2c(c1)S(=O)(=O)c1ccccc1C2=O"
  Class Assignment: "yes (1)"
